Where these numbers come from: patent US20260226503A1

Entries and their measured DBC10% (vp AAV per mL of resin) follow.
- measuredOn: T1, AAV2 capsid (adeno-associated virus serotype 2, UniProt P03135 1-735; P03135 1-598; P03135 1-533)
- T1 construct: Whole assembled capsid, VP1:VP2:VP3 about 1:1:10; AF594-labelled in the library screen; GFP transgene in the lysate runs; a spherical cap of collated PDB structures in the docking; also called adeno-associated virus serotype 2
- assayText: dynamic binding capacity at 10% breakthrough; AAV2 in HEK293 lysate, 3.2e11 vp/mL, PBS pH 7.4, residence time 3 min
Where no end group is shown, it is not given here. Toyopearl AF‑Amino‑650M resin = chromatographic resin to which the peptide C-terminus is conjugated

Worked examples, 2 binders total:
IWWHIAKFG-{Toyopearl AF‑Amino‑650M resin} (Peptide immobilised on chromatographic resin; also called W3) [IWWHIAKFG-Toyopearl resin] = 9.53e+12 vp AAV per mL of resin
IKIFFFFSG-{Toyopearl AF‑Amino‑650M resin} (Peptide immobilised on chromatographic resin; also called W7) [IKIFFFFSG-Toyopearl resin] = 1.02e+13 vp AAV per mL of resin

What does the data say about its DBC10% (vp AAV per mL of resin)? Entry: FFNFFKG-{Toyopearl AF‑Amino‑650M resin} (Peptide immobilised on chromatographic resin; also called W10; FFNFFK-Toyopearl) [FFNFFKG-Toyopearl resin]
1.4e+13 vp AAV per mL of resin

Requested read-out: DBC10% (vp AAV per mL of resin). Entry: KFNHWFG-{Toyopearl AF‑Amino‑650M resin} (Peptide immobilised on chromatographic resin; also called W1; KFNHWF-Toyopearl) [KFNHWFG-Toyopearl resin]
1.33e+13 vp AAV per mL of resin

Field request: DBC10% (vp AAV per mL of resin) | item: FWNWHHFKG-{Toyopearl AF‑Amino‑650M resin} (Peptide immobilised on chromatographic resin; also called W4) [FWNWHHFKG-Toyopearl resin]
8.75e+12 vp AAV per mL of resin
